Experiment: Cell Viability - LYMP2-004 (AID 966);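 note: cells exposed to compound for 24 h; nearly all actives have a fitted effect of over 65% in size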
Details: LYMP2-004 lymphoblastoid cell viability, qHTS; series mostly up to 92.2 µM
Results filed as inconclusive are left out. Active and inactive are the calls of the source. Calls come from the whole dose curve; as a rule, active = well fitted cell-killing curve with a large enough effect; inconclusive = small, poorly fitted or top-dose-only effect, or effect the other way; inactive = no such curve, though single readings can be large or run the other way.
VALUE KIND: outcome

{"columns": ["ENTRY SMILES", "REPORTED RESULT"],
 "data": [
  ["Cn1c(=O)c2c(ncn2C)n(C)c1=O", "inactive"],
  ["Nc1ccn([C@H]2CC[C@@H](CO)O2)c(=O)n1", "inactive"],
  ["Cc1cn([C@H]2C[C@H](N=[N+]=[N-])[C@@H](CO)O2)c(=O)[nH]c1=O", "inactive"]
]}
